# Lookup of reported protein stability index keyed by entry
B1: ARL6IP1 (parent)
chain: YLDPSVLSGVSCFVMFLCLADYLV

variants of: B1; assay: protein stability index of a GFP-peptide fusion (GPS, HEK-293T) (PSI 1-6); higher = more stable; conditions: c terminus: a fixed tail appended;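 further: lentivirally expressed fusions sorted by FACS into six bins by GFP to DsRed ratio, PSI derived from sequencing read proportions per bin multiplied by bin number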
Please reply with the number alone, leaving off any unit.

Worked cases, protein stability index given:
{"sequence-variant": "L2A", "measured": 2.29}
{"sequence-variant": "L19N", "measured": 2.57}
{"sequence-variant": "L7S", "measured": 3.62}
{"sequence-variant": "L7Q", "measured": 4}
{"sequence-variant": "D21K", "measured": 1.14}

Entry L17V , protein stability index reported as 2.2

protein stability index recorded for this variant, G9N , is 4.26

// L23V : protein stability index value = 3.07

# protein stability index (variant: C12L ) is 2.45

Measured protein stability index of V10C : 2.61

Record L17R . Reported protein stability index: 2.54

Looking up C12T , I see its protein stability index listed as 2.24

In plain terms, P4G has a documented protein stability index of 3.42

Short answer for F16A : protein stability index was 1.99

Looking up L19D , I see its protein stability index listed as 2.98

Given item V6K , the value recorded as its protein stability index is 2.51

Noted for C18V : its protein stability index reads 2.09

For this variant ( L7P ), measured protein stability index is 2.4

Per the records, this variant ( S8R ) has protein stability index equal to 2.95

Briefly, protein stability index measured for L2Y : 2.35

Entry P4C , protein stability index reported as 3.21

So for S11C , the logged protein stability index turned out to be 3.23
